Tested System: Casein kinase II (Homo sapiens) (UniProt P67870+P68400+P19784)
Sequence (P19784 whole entry, looked up): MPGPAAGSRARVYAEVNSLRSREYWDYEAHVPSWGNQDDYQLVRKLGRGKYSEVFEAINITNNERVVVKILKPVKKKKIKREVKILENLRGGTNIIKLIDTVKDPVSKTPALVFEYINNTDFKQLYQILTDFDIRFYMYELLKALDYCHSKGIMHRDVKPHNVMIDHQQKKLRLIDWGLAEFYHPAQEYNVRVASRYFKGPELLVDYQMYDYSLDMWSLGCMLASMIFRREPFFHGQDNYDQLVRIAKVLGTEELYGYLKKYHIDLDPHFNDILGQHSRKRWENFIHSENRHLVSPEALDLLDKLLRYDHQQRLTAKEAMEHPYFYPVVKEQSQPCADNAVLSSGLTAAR
Sequence (P67870 whole entry, looked up): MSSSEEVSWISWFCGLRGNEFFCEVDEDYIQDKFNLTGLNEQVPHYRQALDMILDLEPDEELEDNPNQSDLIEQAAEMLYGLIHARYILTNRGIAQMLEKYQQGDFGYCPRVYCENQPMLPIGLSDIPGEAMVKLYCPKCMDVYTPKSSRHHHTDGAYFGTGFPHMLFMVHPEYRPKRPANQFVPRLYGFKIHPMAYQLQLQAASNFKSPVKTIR
Sequence (P68400 whole entry, looked up): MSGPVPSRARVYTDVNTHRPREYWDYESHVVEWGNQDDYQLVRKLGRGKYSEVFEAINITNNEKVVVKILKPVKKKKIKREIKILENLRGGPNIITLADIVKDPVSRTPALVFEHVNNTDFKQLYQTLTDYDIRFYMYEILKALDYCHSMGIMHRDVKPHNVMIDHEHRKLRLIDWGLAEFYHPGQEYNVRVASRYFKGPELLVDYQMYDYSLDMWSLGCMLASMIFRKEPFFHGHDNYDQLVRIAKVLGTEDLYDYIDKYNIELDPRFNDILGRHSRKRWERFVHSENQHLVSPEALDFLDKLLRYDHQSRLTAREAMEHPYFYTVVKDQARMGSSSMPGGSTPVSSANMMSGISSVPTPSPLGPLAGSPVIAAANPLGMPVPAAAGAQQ
Condition Label: at 10 µM
Description: Millipore: Percentage of residual kinase activity of CSNK2A1 at 10uM relative to control. Control inhibitor: Jnk Inhibitor II at 100.0uM. Buffer: 20 mM HEPES pH 7.6, 0.15 M NaCl, 0.1 mM EDTA, 5 mM DTT, 0.1% Triton X-100
Parameter residual activity: see the listing below.
Give the value in % but do not write % after it.

Example results:
-- ask Check Casein kinase II (Homo sapiens) (UniProt P67870+P68400+P19784) data and give residual activity for COc1ccc2c(c[n+](C)c3c4cc5c(cc4ccc23)OCO5)c1OC .
-- reply 110

-- ask Check Casein kinase II (Homo sapiens) (UniProt P67870+P68400+P19784) data and give residual activity for C[S+]([O-])c1ccc(-c2nc(-c3ccc(F)cc3)c(-c3ccncc3)[nH]2)cc1 (stereo not given) .
-- reply 104

-- ask Check Casein kinase II (Homo sapiens) (UniProt P67870+P68400+P19784) data and give residual activity for COc1cc(OC)c(/C=C2\C(=O)Nc3ccccc32)c(OC)c1 .
-- reply 91

-- ask Check Casein kinase II (Homo sapiens) (UniProt P67870+P68400+P19784) data and give residual activity for COc1cc2ncnc(Nc3ccc(OCc4ccccc4)cc3)c2cc1OC .
-- reply 116

-- ask Check Casein kinase II (Homo sapiens) (UniProt P67870+P68400+P19784) data and give residual activity for c1cc(-c2cnn3cc(-c4ccc(OCCN5CCCCC5)cc4)cnc23)ccn1 .
-- reply 27

Others:
-- ask Check Casein kinase II (Homo sapiens) (UniProt P67870+P68400+P19784) data and give residual activity for O=[N+]([O-])/C=C/c1ccc2c(c1)OCO2 .
-- reply 126

-- ask Check Casein kinase II (Homo sapiens) (UniProt P67870+P68400+P19784) data and give residual activity for CCn1cnc2c(Nc3cccc(Cl)c3)nc(N[C@@H]3CCCC[C@@H]3N)nc21 .
-- reply 57

-- ask Check Casein kinase II (Homo sapiens) (UniProt P67870+P68400+P19784) data and give residual activity for CN[C@@H]1C[C@H]2O[C@@](C)([C@@H]1OC)n1c3ccccc3c3c4c(c5c6ccccc6n2c5c31)C(=O)NC4 .
-- reply 85

-- ask Check Casein kinase II (Homo sapiens) (UniProt P67870+P68400+P19784) data and give residual activity for CC(C)(C)c1cc(C=C(C#N)C#N)cc(Br)c1O .
-- reply 114

-- ask Check Casein kinase II (Homo sapiens) (UniProt P67870+P68400+P19784) data and give residual activity for O=C1Nc2ccc3ncsc3c2/C1=C/c1c[nH]cn1 .
-- reply 1

----------
Parameter residual activity: see the listing below.
Tested System: Serine/threonine-protein kinase WNK3 (Homo sapiens)
Condition Label: at 10 µM
Description: Millipore: Percentage of residual kinase activity of WNK3 at 10uM relative to control. Control inhibitor: Phosphoric acid* at 0.3uM. Buffer: 8 mM MOPS pH 7.0, 0.2 mM EDTA
Give the value in % but do not write % after it.

-- ask Supply residual activity value. Item: COc1cc2ncnc(Nc3ccc(OCc4ccccc4)cc3)c2cc1OC
-- reply 64

-- ask Supply residual activity value. Item: COC(=O)[C@@]1(O)C[C@H]2O[C@]1(C)n1c3ccccc3c3c4c(c5c6ccccc6n2c5c31)C(=O)NC4
-- reply 8

-- ask Supply residual activity value. Item: CCn1cnc2c(Nc3cccc(Cl)c3)nc(N[C@@H]3CCCC[C@@H]3N)nc21
-- reply 56

-- ask Supply residual activity value. Item: COc1cc(OC)c(/C=C2\C(=O)Nc3ccccc32)c(OC)c1
-- reply 83

-- ask Supply residual activity value. Item: O=C1NC(=O)c2c1c1c3ccccc3n3c1c1c2c2ccccc2n1C1CCC3O1
-- reply 90

-- ask Supply residual activity value. Item: COc1ccc2c(c[n+](C)c3c4cc5c(cc4ccc23)OCO5)c1OC
-- reply 84

Then this compound:
-- ask Supply residual activity value. Item: CC(C)(C)c1cc(C=C(C#N)C#N)cc(Br)c1O
-- reply 105
